Cited source: ChEMBL document CHEMBL1201862

Molecular target: FAD-linked sulfhydryl oxidase ALR (Homo sapiens)
Sequence (P55789 whole entry): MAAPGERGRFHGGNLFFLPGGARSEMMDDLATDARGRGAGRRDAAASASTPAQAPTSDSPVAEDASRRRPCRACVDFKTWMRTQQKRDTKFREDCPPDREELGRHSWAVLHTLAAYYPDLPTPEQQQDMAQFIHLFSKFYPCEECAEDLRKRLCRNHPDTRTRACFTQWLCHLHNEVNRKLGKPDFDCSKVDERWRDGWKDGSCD
Test: ALR-catalysed DTT oxidation blockers – biochemical, H2O2 detection, luminescence, cherry-pick, dose response (AID 493248)
Calls of active or inactive are those of the source.
Measured AC50 accompanies every entry in the list below.

Solved cases below.
| compound | value.measured |
| --- | --- |
| CCCN1CCc2cccc3c2[C@H]1Cc1ccc(O)c(O)c1-3 | 9 nM (active) |
| Cc1ccc(C)c(S(=O)(=O)Nc2ccc(O)c(Sc3nnc[nH]3)c2)c1 | 2050 nM (active) |
| Sc1nnc(C2CCCCC2)n1/N=C/c1ccccn1 | 1040 nM (active) |
| COc1cc(/C=N/NC(=O)CC(=O)NC2CCCCC2)ccc1O | 175 nM (active) |
| Cc1ccc(NC(=O)N/C=C/c2ccco2)cc1C | 1700 nM (active) |

Q: Form field: AC50 recorded for COc1cccc(N2CCN(Cc3nnnn3C3CCCCC3)CC2)c1 with FAD-linked sulfhydryl oxidase ALR (Homo sapiens) (enter value)
Ans: 5120 nM (active)

Q: Form field: AC50 recorded for C=CCn1c(S)nnc1-c1ccccc1[N+](=O)[O-] with FAD-linked sulfhydryl oxidase ALR (Homo sapiens) (enter value)
Ans: 1690 nM (active)

Q: Form field: AC50 recorded for CN(C)c1ccc(CN(C(=O)c2ccco2)C2CCS(=O)(=O)C2)cc1 (stereo unspecified) with FAD-linked sulfhydryl oxidase ALR (Homo sapiens) (enter value)
Ans: 4160 nM (active)

Q: Form field: AC50 recorded for Cc1occc1C(=O)N1CCCC(Nc2ccc(C(C)C)cc2)C1 (stereo unspecified) with FAD-linked sulfhydryl oxidase ALR (Homo sapiens) (enter value)
Ans: 3970 nM (active)

Q: Form field: AC50 recorded for CN(CCCNC(=O)c1cccc(N2CCCC2=O)c1)c1ccccc1 with FAD-linked sulfhydryl oxidase ALR (Homo sapiens) (enter value)
Ans: 823 nM (active)

Q: Form field: AC50 recorded for CC(=O)NCCC(=O)Nc1sc2c(c1-c1nc3ccccc3[nH]1)CCCC2 with FAD-linked sulfhydryl oxidase ALR (Homo sapiens) (enter value)
Ans: 4690 nM (active)

###

Test system: INS1
Experiment: INS-1E survival protection against cytokine death – cell-based, luminescence, retest, dose response (AID 449756);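 further: cell death triggered by IL-1 beta plus TNF-alpha plus IFN-gamma mixture; protective hits raise ATP signal compared with cytokine alone wells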
Assay type: functional
Settings: Rattus norvegicus
Activity calls are given as the source filed them.
reported.property: AC50

| compound | AC50 |
| --- | --- |
| Cc1ccc(C(C)C)c(OCc2ccc(C(=O)N/N=C/c3ccc(O)cc3O)cc2)c1 | 1.24 µM (active) |
| CC[C@H]1CN2CCc3cc(OC)c(OC)cc3[C@@H]2C[C@@H]1C[C@H]1NCCc2cc(OC)c(OC)cc21 | 2.35 µM (active) |
| COc1cccc(-c2nc(-c3ccc(NC(=O)c4cccnc4)cc3)no2)c1 | 1.33 µM (active) |
| CC(C)(C)C1CCC2(CC1)C(C#N)=C(SCC(=O)NC1CCCCC1)NC(=O)C2C#N (configuration not stated) | 8.73 µM (active) |

Q: AC50 lookup needed for O=C(Nc1cccnc1)c1cccnc1 , thanks.
Ans: 7.3 µM (active)

Q: AC50 lookup needed for Fc1cc(F)c2nc(Nc3nc4c(F)cccc4s3)sc2c1 , thanks.
Ans: 4.34 µM (active)

###

Measured IC50 accompanies every entry in the list below.
Target: Prothrombin (Bos taurus)
Experiment: thrombin protease inhibitors – biochemical, fluorescence polarization, uHTS hits, dose response (AID 602369)
Assay type: functional
The source made the active and inactive calls.

Solved cases below.
| smiles.representation | reported.property | value.measured |
| --- | --- | --- |
| NC1=NC(=O)/C(=C/c2cn(CCC(=O)O)nc2-c2ccc(Cl)cc2)S1 | IC50 | 40.4 µM (active) |
| COc1ccc(Cc2c(-c3ccc(C)cc3)nc3ccc(Cl)cn23)c(C)c1 | IC50 | 22.2 µM (active) |
| CCN(CCO)c1ccc(N=Nc2cc(C)[nH]n2)cc1 | IC50 | 61.2 µM (active) |
| COc1cccc2cc(C(=O)Nc3ccc(F)cc3)/c(=N/c3ccc(C(=O)O)cc3)oc12 | IC50 | 21.7 µM (active) |
| O=C(N/N=C/c1cc(Cl)ccc1O)c1ccc(Br)cc1 | IC50 | 63.2 µM (active) |

Q: Form field: IC50 recorded for O=C(Nc1ccc2c(c1)CCC2)c1cc(S(=O)(=O)N2CCN(c3ccccc3)CC2)ccc1Cl with Prothrombin (Bos taurus) (enter value)
Ans: 31.6 µM (active)

###

Target: Aminopeptidase N (Plasmodium falciparum FcB1/Columbia)
Sequence (O96935 whole entry): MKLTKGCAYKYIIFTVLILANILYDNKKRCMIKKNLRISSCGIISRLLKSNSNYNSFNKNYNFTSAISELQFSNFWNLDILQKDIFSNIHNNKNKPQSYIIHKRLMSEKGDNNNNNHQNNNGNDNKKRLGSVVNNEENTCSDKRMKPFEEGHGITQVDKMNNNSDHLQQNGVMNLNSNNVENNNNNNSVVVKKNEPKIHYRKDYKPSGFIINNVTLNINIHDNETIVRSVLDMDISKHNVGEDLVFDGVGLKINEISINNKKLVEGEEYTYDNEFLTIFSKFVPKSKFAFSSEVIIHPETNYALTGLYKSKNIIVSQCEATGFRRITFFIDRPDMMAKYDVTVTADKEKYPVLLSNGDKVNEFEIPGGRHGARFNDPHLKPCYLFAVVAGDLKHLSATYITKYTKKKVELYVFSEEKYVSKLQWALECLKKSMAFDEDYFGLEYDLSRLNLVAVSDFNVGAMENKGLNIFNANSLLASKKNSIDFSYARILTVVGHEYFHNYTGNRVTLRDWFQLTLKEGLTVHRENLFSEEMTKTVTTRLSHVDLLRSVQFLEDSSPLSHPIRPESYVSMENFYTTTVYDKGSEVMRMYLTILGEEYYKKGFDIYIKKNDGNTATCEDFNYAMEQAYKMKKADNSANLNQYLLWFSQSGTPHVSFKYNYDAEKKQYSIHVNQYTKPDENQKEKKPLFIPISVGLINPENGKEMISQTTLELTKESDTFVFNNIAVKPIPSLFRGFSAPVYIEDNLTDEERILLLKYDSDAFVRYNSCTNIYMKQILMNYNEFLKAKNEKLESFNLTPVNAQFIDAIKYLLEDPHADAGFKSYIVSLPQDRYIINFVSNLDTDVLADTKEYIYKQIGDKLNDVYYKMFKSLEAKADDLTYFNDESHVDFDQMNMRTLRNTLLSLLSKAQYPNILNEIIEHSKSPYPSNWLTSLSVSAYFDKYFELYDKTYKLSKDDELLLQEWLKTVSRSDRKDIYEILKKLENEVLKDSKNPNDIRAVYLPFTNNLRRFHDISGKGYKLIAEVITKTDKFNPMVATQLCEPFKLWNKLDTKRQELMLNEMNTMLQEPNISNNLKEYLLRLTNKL
Assay: malaria alanyl aminopeptidase activity blockers – biochemical, fluorogenic H-Leu-NHMec substrate, 1536-well (AID 1445)
Parameters: species or system Plasmodium falciparum 3D7, 3D7
Activity calls are given as the source filed them.
reported.property: IC50

| molecule | IC50 |
| --- | --- |
| CC(c1nc2ccccc2o1)N1C(=O)c2ccccc2C1=O (stereo unspecified) | 79.5 µM (active) |
| Cc1ccc2[nH]c(C)c(/C=C3/C(=N)N4C(=NC3=O)SN=C4S(=O)(=O)C(C)C)c2c1 | 9.85 µM (active) |
| O=C(Nn1c(C2CCC2)nc2ccccc2c1=O)C1CCC1 | 48.2 µM (active) |
| O=C(Nc1cccc(Oc2ccc(C(=O)O)c(C(=O)O)c2)c1)c1ccc(-c2ccccc2)cc1 | 44.7 µM (active) |
| O=S(=O)(Nc1nc(-c2sccc2Cl)cs1)c1cc(Cl)ccc1Cl | 44.1 µM (active) |

Q: IC50 lookup needed for O=c1cc(-c2ccc(O)c(-c3c(O)cc(O)c4c(=O)cc(-c5ccc(O)cc5)oc34)c2)oc2cc(O)cc(O)c12 , thanks.
Ans: 108 µM (active)

###

Experiment: microbe, parasite or virus in culture
Format: functional
Details: Mycobacterium tuberculosis
Activity calls are given as the source filed them.
Measured CC50 accompanies every entry in the list below.

Solved cases below.
| smiles.representation | CC50 |
| --- | --- |
| Cc1ccc2nc3c(cc(C(=O)NCc4ccco4)c(=N)n3Cc3ccco3)c(=O)n2c1 | 23.8 µM (active) |
| O=C(c1ccccc1)c1ccc(OCCOCCN2CCN(Cc3ccccc3)CC2)cc1 | > 40 µM (active) |
| COc1cc(CNCCc2ccccc2)cc(Cl)c1OCc1ccccc1 | 22.9 µM (active) |
| CCCCn1c(=O)c(C(=O)Nc2ncccc2C)c(O)c2ccccc21 | 29.3 µM (active) |

Q: CC50 lookup needed for CC(C)(C)c1ccc(-c2nc3nc(O)cc(NC(=O)c4ccco4)n3n2)cc1 , thanks.
Ans: > 40 µM (active)

###

Molecular target: Orexin/Hypocretin receptor type 1 (Homo sapiens, UniProt O43613);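 further: antagonism measured against Orexin-A challenge at about its EC80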
Sequence (O43613 whole entry): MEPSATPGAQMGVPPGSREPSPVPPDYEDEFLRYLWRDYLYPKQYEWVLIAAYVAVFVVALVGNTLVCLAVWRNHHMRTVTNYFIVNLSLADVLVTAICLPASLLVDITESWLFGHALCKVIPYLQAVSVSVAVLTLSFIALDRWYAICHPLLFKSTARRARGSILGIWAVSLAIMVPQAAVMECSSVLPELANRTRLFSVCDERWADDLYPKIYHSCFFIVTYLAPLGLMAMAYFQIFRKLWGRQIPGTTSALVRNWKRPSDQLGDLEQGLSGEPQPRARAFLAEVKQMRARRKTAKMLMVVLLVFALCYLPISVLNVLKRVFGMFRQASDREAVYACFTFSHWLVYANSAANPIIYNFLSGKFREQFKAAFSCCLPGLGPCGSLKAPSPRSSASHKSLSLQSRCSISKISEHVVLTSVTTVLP
Assay: Homogeneous Time Resolved Fluorescence (HTRF)-based cell-based high throughput dose response assay for antagonists of the orexin 1 receptor (OX1R; HCRTR1). [Related pubchem assays (depositor defined):AID434989, AID435008, AID463079, AID485270, AID492963, AID492964, AID492965, AID493232, AID504717, AID504718]
Format: functional
Calls of active or inactive are those of the source.
// one of label 1 for active, label 0 for inactive, no free text

| compound | measurement.target | label |
| --- | --- | --- |
| CCn1c(C)nc2cc(-c3nc4n(n3)Cc3ccccc3-4)ccc21 | Orexin/Hypocretin receptor type 1 (Homo sapiens, UniProt O43613) | label 1 |
| Cc1cccc(NC(=O)[C@@H]2CCCN2S(=O)(=O)c2ccc(Cl)cc2)c1 | Orexin/Hypocretin receptor type 1 (Homo sapiens, UniProt O43613) | label 1 |

Q: Assay outcome for O=C(Nc1cccc(NC(=O)N2CCN(c3ccccc3)CC2)c1)N1CCN(c2ccccc2)CC1 : what was it?
Ans: label 0

Q: Assay outcome for O=C(CN1C(=O)/C(=C\c2cccc(Br)c2)Oc2ccccc21)NCC1CCCO1 (centres undefined) : what was it?
Ans: label 1

###

Molecular target: Corticotropin-releasing factor receptor 2/Corticotropin-releasing factor-binding protein (Homo sapiens, UniProt P24387+Q13324)
Sequence (Q13324 whole entry): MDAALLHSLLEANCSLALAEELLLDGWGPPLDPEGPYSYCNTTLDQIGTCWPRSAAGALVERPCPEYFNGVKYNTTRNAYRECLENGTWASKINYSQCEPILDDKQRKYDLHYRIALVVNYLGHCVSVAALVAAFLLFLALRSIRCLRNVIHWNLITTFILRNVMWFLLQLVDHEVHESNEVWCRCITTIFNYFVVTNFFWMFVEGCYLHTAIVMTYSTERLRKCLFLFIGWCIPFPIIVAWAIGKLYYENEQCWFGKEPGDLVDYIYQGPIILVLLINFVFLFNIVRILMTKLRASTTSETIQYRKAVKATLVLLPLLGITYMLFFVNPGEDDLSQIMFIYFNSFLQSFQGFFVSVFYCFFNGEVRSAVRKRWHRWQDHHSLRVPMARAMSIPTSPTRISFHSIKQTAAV
Sequence (P24387 whole entry): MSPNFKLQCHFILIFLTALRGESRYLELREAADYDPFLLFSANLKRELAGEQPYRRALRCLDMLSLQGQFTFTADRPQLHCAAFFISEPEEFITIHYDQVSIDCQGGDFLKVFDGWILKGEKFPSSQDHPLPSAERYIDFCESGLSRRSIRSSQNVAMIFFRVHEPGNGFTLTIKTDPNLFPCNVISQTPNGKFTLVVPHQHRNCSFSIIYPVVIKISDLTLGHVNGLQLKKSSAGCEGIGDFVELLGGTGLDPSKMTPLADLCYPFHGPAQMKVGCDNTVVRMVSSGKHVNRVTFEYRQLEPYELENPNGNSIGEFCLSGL
Assay: activators of CRF receptor 2 with binding protein – uHTS hits, confirmation (AID 602473)
Format: functional
Settings: read-out: EC50_Mean
Active and inactive are the calls of the source.
// one of active, inactive, no free text

These solved cases illustrate the format of a correct answer.
| molecule | label |
| --- | --- |
| Nc1ncnc(NNC(=O)CNC(=O)c2c(F)cccc2Cl)c1[N+](=O)[O-] | inactive |
| COC(=O)Cc1ccc(NC(=S)NCCC(C)C)cc1 | inactive |
| O=C(NCc1ccncc1)c1cc(F)c(F)cc1Cl | inactive |
| COc1cc(C2C(C#N)=C(N)Oc3[nH]nc(-c4ccccn4)c32)cc(OC)c1OC (configuration not stated) | inactive |
| O=C(CCc1ccccc1)Nc1c(F)cccc1F | inactive |

Q: Assay outcome for Clc1ccc2nncn2n1 : what was it?
Ans: inactive

Q: Assay outcome for CC(C)Cc1csc(NC(=O)c2ccc(F)cc2)c1C(=O)O : what was it?
Ans: inactive

Q: Assay outcome for S=C(Nc1ccc2c(c1)OCO2)Nc1ccccc1Cl : what was it?
Ans: inactive

Q: Assay outcome for COCCn1c(=N)c(C(=O)NCc2ccco2)cc2c(=O)n3cc(C)ccc3nc21 : what was it?
Ans: inactive

Q: Assay outcome for CC(=O)c1ccc(NC(=S)NC(=O)Cc2ccc(Cl)cc2)cc1 : what was it?
Ans: active

Q: Assay outcome for Cc1cccc(C)c1N1CCN(C(=O)c2ccc3c(c2)OCO3)CC1 : what was it?
Ans: inactive

Q: Assay outcome for Cc1cc(C)c2c(CC(=O)Nc3nccs3)coc2c1 : what was it?
Ans: inactive
